Each entry below lists one item and its recorded PBM binding z-score value.
- System: PPARg:RXRa 90nM:30nM, anti-RXR (NR concentration 90 nM, RXRa partner concentration 30 nM)
- Experiment: PBM binding z-score (relative to random genomic background probes); higher = stronger binding; sequences stand for … in GC…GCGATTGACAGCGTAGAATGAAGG
// return just the number, without any unit appended

Worked cases, PBM binding z-score given:
Macromolecule sequence	Tgt	Reported result
CGAACGAGGGCACGAGTTGATAGCAAATGCCGAT	PPARg:RXRa 90nM:30nM, anti-RXR (NR concentration 90 nM, RXRa partner concentration 30 nM)	1.44
ATATGTAGGTTCTCGGGTCATTCAGTTTGCGCAT	PPARg:RXRa 90nM:30nM, anti-RXR (NR concentration 90 nM, RXRa partner concentration 30 nM)	2.94
CGTCAAAGTTCAACTAACGTAACGTAAAGCACGC	PPARg:RXRa 90nM:30nM, anti-RXR (NR concentration 90 nM, RXRa partner concentration 30 nM)	4.04
TCTTGTAGATCCAGCAGGTTAAGAAAGCCTGAGT	PPARg:RXRa 90nM:30nM, anti-RXR (NR concentration 90 nM, RXRa partner concentration 30 nM)	1.84
GCTAGCAGGCCATTTGGCTCACTCAATGACGGGC	PPARg:RXRa 90nM:30nM, anti-RXR (NR concentration 90 nM, RXRa partner concentration 30 nM)	-0.656

Query the reported PBM binding z-score for PPARg:RXRa 90nM:30nM, anti-RXR (NR concentration 90 nM, RXRa partner concentration 30 nM); item: TCTATTAGTTGAAGGGCAACAGACGAGTCCGTTT
2.9

----------
The reader will find reported PBM binding z-score values listed item by item below.
- Test system: LXRa:RXRa (NR concentration 270 nM, RXRa partner concentration 90 nM)
- Experiment: PBM binding z-score (relative to random genomic background probes); higher = stronger binding; sequences stand for … in GC…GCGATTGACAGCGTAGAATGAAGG
Returns: the value as a bare number; no unit string appended.

Below: 5 sequences and their reported PBM binding z-score.
Macromolecule sequence	Reported result
GATACAGGGTCAGCAAGAGGCCAGAGTATGGAAA	3.07
ATCTCTAGATAAAGATAGTTCAGTGAATGCAAAT	0.122
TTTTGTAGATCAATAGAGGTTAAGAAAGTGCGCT	3.94
CCTTACGGGTCACTCCAGGTTATAGAATCGGAGT	7.67
ACTAGCAGGCCCAGGGTCACTCAAGATTAGTCCG	1.58

Requested field: PBM binding z-score. Item: ATCTCTAGGTAACAAGTTCAGTAAAAGAGAGGAC
1.08

Tell me the measured PBM binding z-score of AGAACGAGGGCACGCTGAGTTGATAGCTGAGTAG , please.
0.607

Entry under review: CGTCCAATGTCAAAGGTCAGTGAAGAGATGACGG . Reported PBM binding z-score?
4.48

Give the measured PBM binding z-score of TCTTGTATATCAAAGGTTAAGAAAGCCGAAGCCT .
2.66

Dear colleague, I am looking for the recorded PBM binding z-score of the following sequence: AGTCAAAGTTCACTAGGTAACGTACGATTCAGCT
5.41

Returns the measured PBM binding z-score for the input sequence. Input: CGTCCAAGGTCAGAGAAGTCAGTGAATGCCGAGT
2.9

GET /values?readout=PBM binding z-score&item= TGAATGAGGTTATACGATCAGGGAACGTTGCAAA
1.37

----------
- Test system: THRa:RXRa (NR concentration 90 nM, RXRa partner concentration 90 nM)
- Experiment: PBM binding z-score (relative to random genomic background probes); higher = stronger binding; sequences stand for … in GC…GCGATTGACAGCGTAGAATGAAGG
Outcome: 1.0 for PBM binding z-score of at least 2; 0.0 for anything lower.

Does CGTCCAAGGCCATAGGAGGTCAGTGAAGACAGAT have a reported PBM binding z-score of at least 2?
1.0

Confirm if PBM binding z-score reported for the sequence CAAACTAGGTCATGAAAGGTCAAAGTCGAATGAC is 2 or above.
1.0

Item CCTACTGGGCCATTCAGAGGTCATGGATCATATG with PBM binding z-score of 2 or above?
1.0

Hi team, for CAATCTAGGTCAAGGTCAAAGTCGGTTTGTGCCA , is the recorded PBM binding z-score at or above 2?
1.0

In plain terms: is recorded PBM binding z-score at least 2 for ATCGAAAGGTCGTGAGGTGAGCATACAGAAAGGC ?
1.0

Is PBM binding z-score at least 2? Consider TCTATTAGTTGATTAGGGCAACCAAAACAGCGGA
0.0

Reported PBM binding z-score reaches at least 2 for GTAACGAGGGCAAAGTTGATAGCATCTGTCGACG ?
0.0

Entry CCTACTGGGCCACGAAAGGTCAATGATTCAGTGA : is its PBM binding z-score no less than 2?
1.0

Confirm if PBM binding z-score reported for the sequence GCTATTAGTTGAGAGGGCAACCGAATGATTCTCG is 2 or above.
0.0

Is PBM binding z-score for AGAATGAGGTTATTAAGAGCAGGGAATTGCGGTC at or above 2?
1.0

Dear colleague, could you confirm whether CCTCGAAGGACAGAAGGTCAGAGCTGTCCGCTTT has PBM binding z-score at or above 2?
0.0

Does PBM binding z-score meet or surpass 2 for CCTACTGGGCCAAGGTCGTTGATCAGTCAAAGCA ?
0.0

Does CTGACTGGGGCAAGGTTACCATAACGCACAGCCA have a reported PBM binding z-score of at least 2?
0.0

Could you please find out whether GCGACTGGGGCATCAGGAGGTTACCATAACTTAA has PBM binding z-score that meets 2 or exceeds it?
0.0

# check: PBM binding z-score of TCATATAGGTAGATGCTAGGTGAAAGTCCGATCT is greater than or equal to 2
0.0

API: above_or_equal(metric=PBM binding z-score, cutoff=2) for item TAGCCTAGGTCATTCGGGGGCCAGTATAGAAAGC
1.0

----------
- Tested on: PPARg:RXRa 90nM:30nM, anti-RXR (NR concentration 90 nM, RXRa partner concentration 30 nM)
- Experiment: PBM binding z-score (relative to random genomic background probes); higher = stronger binding; sequences stand for … in GC…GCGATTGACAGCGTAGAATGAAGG
Quantity kind: PBM binding z-score
Please reply with the number alone, leaving off any unit.

Examples with their reported PBM binding z-score follow.
Macromolecule sequence	PBM binding z-score
GCGACTGGGGAATCAGCAGGTTACCATAACTTAA	-0.292
CGAATTAGGTCAGAACAGGACAGTGAAGGATGAT	3.65
AGTACGAGGGCAATGAGTTGATAGCACGGGTGGC	0.117
CCGACTGGGGCAAAAAGGTTACCATACCATCCGG	1.25
TCTTGTAGATCAACAGGAGGTTAAGACAGATCGA	2.07
GCTGCTAGGTCAGGTTGGTCAGCTATCGGGTACG	0.562
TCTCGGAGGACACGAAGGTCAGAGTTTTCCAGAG	1.87
TCGAGTAGGTTACCAAAGGGGCATTCAGCTTTCT	1.22

What value of measured PBM binding z-score is listed for CGAACTAGGTCATCCAGGACGGTGAATACATTGA ?
5.41

Value lookup for PBM binding z-score; key = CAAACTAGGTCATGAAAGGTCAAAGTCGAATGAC
8.38

Return reported PBM binding z-score; argument: ACTAGCACGCCAAGTTTGGGTCACTCAAACAAAG
-0.34

----------
- Test system: RARa:RXR (NR concentration 270 nM, RXRa partner concentration 90 nM)
- Experiment: PBM binding z-score (relative to random genomic background probes); higher = stronger binding; sequences stand for … in GC…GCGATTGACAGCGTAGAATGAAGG
Reported PBM binding z-score values for a set of sequences
Lab note: record just the number, no unit beside it.

These recorded examples may help you get a feel for the data.
Macromolecule sequence	Reported result
GATACAGTGTCAGCTAGAGGCCAGAGTATGGAAA	-0.0269
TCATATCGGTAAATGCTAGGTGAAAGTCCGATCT	0.463
TCTCGGAGGACACGAAGGTCAGGGCTTTCCAGAG	2.52
TCTAGCAGGCCTGAGGGTCACTCAAGAGGTACGG	2.85
ATTAGCAGGCCAAGGGTCACTCAAGATTAGTCCG	4.06
GCTCGGAGGACAAGGTGAGAGCTTTGTCCGTAGA	-0.166
TCTGCGAGGTCAACGATGGTCAGCTAATCTGCTA	5.37
GTACGAAGGTGAATAGGTCGTTGATGAGTAGGCG	1.75

I have this sequence here, ATACCAAGGTGATCATGAGGTCGTTGATACTAAC , and I need its recorded PBM binding z-score.
2.22

I would be grateful if you could share the reported PBM binding z-score for CCTACGGGGCCATCAGGTCATTGATATCAACGTT .
2.97

Name the recorded PBM binding z-score for CAAACTAGGTCACGAAGGGTCAAAGTCGAATGAC .
7.14

# query: PBM binding z-score of entry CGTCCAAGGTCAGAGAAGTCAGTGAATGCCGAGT
2.86
